Ref: ChEMBL document CHEMBL1140572

- System name: Vasopressin V1a receptor (Homo sapiens)
- Sequence (P37288 whole entry): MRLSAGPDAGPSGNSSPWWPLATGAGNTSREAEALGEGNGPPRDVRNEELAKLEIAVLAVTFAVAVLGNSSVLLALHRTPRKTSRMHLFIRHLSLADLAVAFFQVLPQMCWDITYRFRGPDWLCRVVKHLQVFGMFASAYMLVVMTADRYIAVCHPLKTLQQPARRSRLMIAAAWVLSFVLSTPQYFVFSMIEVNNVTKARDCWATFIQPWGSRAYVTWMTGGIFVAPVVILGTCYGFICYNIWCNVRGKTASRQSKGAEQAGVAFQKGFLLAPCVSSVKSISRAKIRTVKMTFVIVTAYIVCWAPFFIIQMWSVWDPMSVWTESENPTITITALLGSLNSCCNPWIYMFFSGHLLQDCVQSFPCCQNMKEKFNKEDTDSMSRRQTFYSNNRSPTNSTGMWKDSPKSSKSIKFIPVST
- Run description: Displacement of [3H]Arg-vasopressin from human recombinant vasopressin V1a receptor expressed in HEK293 cells
- Format: cell-based
IC50 strictly less than 0.03 µM = TRUE. Otherwise FALSE.

INPUT: Could you please tell me whether IC50 recorded for O=C(O)C1=CC2(CC1)CCN(C(=O)c1ccc(NC(=O)c3cc(F)ccc3Cl)cc1)c1ccccc1C2 (configuration not stated) is less than 0.03 µM?
OUTPUT: FALSE

INPUT: Could you please tell me whether IC50 recorded for COc1cc(C(=O)N2CCC3(C=C(C(=O)O)CC3)Cc3ccccc32)ccc1NC(=O)c1cc(F)ccc1Cl (configuration not stated) is less than 0.03 µM?
OUTPUT: TRUE

INPUT: Could you please tell me whether IC50 recorded for Cc1ccc(F)cc1C(=O)Nc1ccc(C(=O)N2CCC3(C=C(CO)CC3)Cc3ccccc32)c(Cl)c1 (configuration not stated) is less than 0.03 µM?
OUTPUT: FALSE

INPUT: Could you please tell me whether IC50 recorded for `CN(C)CCNC(=O)C1=C[C@@]2(CC1)CCN(C(=O)c1ccc(NC(=O)c3ccccc3-c3ccccc3)cc1)c1ccccc1C2` is less than 0.03 µM?
OUTPUT: TRUE

INPUT: Could you please tell me whether IC50 recorded for O=C(O)C1=CC2(CC1)CCN(C(=O)c1ccc(NC(=O)c3ccccc3F)cc1)c1ccccc1C2 (configuration not stated) is less than 0.03 µM?
OUTPUT: FALSE

INPUT: Could you please tell me whether IC50 recorded for COC(=O)C1=CC2(CC1)CCN(C(=O)c1ccc(NC(=O)c3cc(F)ccc3Cl)cc1)c1ccccc1C2 (configuration not stated) is less than 0.03 µM?
OUTPUT: FALSE

INPUT: Could you please tell me whether IC50 recorded for CNCC1=CC2(CC1)CCN(C(=O)c1ccc(NC(=O)c3ccccc3-c3ccccc3)cc1)c1ccccc1C2 (configuration not stated) is less than 0.03 µM?
OUTPUT: TRUE
